Give measured pIC50 for each item. Keep answers brief.
- TARGET_SYSTEM: EBI2 (Homo sapiens, UniProt P32249)
- Sequence (P32249 whole entry): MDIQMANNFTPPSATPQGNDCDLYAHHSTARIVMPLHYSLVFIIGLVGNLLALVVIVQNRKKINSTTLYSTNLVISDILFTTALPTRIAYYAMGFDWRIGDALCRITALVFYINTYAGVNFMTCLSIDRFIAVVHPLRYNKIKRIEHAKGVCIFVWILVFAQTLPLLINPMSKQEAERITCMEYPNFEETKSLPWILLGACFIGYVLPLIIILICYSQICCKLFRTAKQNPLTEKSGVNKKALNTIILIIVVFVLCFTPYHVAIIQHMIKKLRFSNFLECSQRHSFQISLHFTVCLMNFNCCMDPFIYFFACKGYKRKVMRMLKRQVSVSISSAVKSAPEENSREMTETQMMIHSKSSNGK
- MEASUREMENT_PROTOCOL: Cell-based luminescent assay (EBI2 modulation)
- TEST_SETTINGS: cell-based luminescence; 7a,25-OHC final assay concentration 80 nM; 60 minutes incubation; read-out: IC50
pIC50: −log10 of the molar value.

Problem: Bench note: what pIC50 did `O=C(Nc1ccc(F)c(C(F)(F)F)c1)N1CCN(C(=O)c2cc3cc(Cl)ccc3[nH]2)CC1` show?
Solution: 6.30 to 7.00

Problem: Bench note: what pIC50 did `O=C(C#Cc1ccc(Cl)c(Cl)c1)N1CCN(Cc2ccc(F)cc2)CC1` show?
Solution: 6.30 to 7.00

Problem: Bench note: what pIC50 did `O=C(/C=C/c1ccc(Cl)c(Cl)c1)N1CCN(C(=O)c2ccc(C(F)(F)F)cc2)CC1` show?
Solution: > 7.00

Problem: Bench note: what pIC50 did `O=C(O)c1ccc(C(=O)N2CCN(C(=O)c3cc4cc(Cl)ccc4[nH]3)CC2)cc1` show?
Solution: 6.30 to 7.00

Problem: Bench note: what pIC50 did `Cc1ccc(C#CC(=O)N2CCN(C(=O)c3ccc(F)cc3)CC2)cc1` show?
Solution: > 7.00

Problem: Bench note: what pIC50 did `O=C(/C=C/c1ccc(Br)cc1)N1CCC(CNCc2ccc(C(F)(F)F)cc2)CC1` show?
Solution: > 7.00

Problem: Bench note: what pIC50 did `O=C(/C=C/c1ccc(F)cc1)N1CCN(S(=O)(=O)C2=Cc3ccccc3CC2)CC1` show?
Solution: > 7.00

Problem: Bench note: what pIC50 did `O=C(/C=C/c1ccc(Cl)cc1F)N1CCN(S(=O)(=O)c2ccccc2)CC1` show?
Solution: 6.30 to 7.00

###

- TARGET_SYSTEM: EBI2 (Homo sapiens)
- MEASUREMENT_PROTOCOL: Cell-based luminescent assay (EBI2 modulation)
- TEST_SETTINGS: cell-based luminescence; 7a,25-OHC final assay concentration 80 nM; 60 minutes incubation; read-out: IC50
- Protocol: Cell-Based Luminescent Assay To assess EBI2 modulation, the compounds described herein were assayed in the following cell-based luminescent assay: 1) Plated 600 cells/well in 4 uL of assay media into columns 1-48 of a 1536-well assay plate, using a liquid dispenser. 2) Centrifuged plates at 1000 rpm for 1 minute and covered with lids. […] 10) Read plates using the Viewlux, Envision or other suitable plate reader using a luminescence detection. […]
pIC50: −log10 of the molar value.
Give measured pIC50 for each item. Keep answers brief.

Problem: Bench note: what pIC50 did `O=C(c1cc2ccc(Cl)cc2s1)N1CCN(C(c2ccccc2)c2ccccc2)CC1` show?
Solution: > 7.00

Problem: Bench note: what pIC50 did `O=C(C#Cc1cccc(Cl)c1Cl)N1CCN(C(=O)c2ccc(F)cc2C(F)(F)F)CC1` show?
Solution: > 7.00

Problem: Bench note: what pIC50 did `O=C(c1cc2cc(Cl)ccc2[nH]1)N1CCN(Cc2cc(C(F)(F)F)cc(C(F)(F)F)c2)CC1` show?
Solution: 6.30 to 7.00

Problem: Bench note: what pIC50 did `O=C(C#Cc1cccc(Cl)c1Cl)N1CCN(Cc2ccc(F)cc2)CC1` show?
Solution: > 7.00

Problem: Bench note: what pIC50 did `O=C(/C=C/c1ccc(F)cc1)N1CCN(C(c2ccccc2)c2ccccc2)CC1` show?
Solution: > 7.00

Problem: Bench note: what pIC50 did `COC(=O)c1ccc(C(=O)N2CCN(C(=O)c3cc4cc(Cl)ccc4[nH]3)CC2)cc1` show?
Solution: > 7.00

Problem: Bench note: what pIC50 did `O=C(C#Cc1ccc(Cl)cc1)N1CCN(Cc2ccc(F)cc2C(F)(F)F)CC1` show?
Solution: 6.30 to 7.00

Problem: Bench note: what pIC50 did `Cc1ccc2[nH]c(C(=O)N3CCN(Cc4ccc(C(C)(C)C)cc4)CC3)cc2c1` show?
Solution: > 7.00

###

Give measured IC50 for each item. Keep answers brief.
- TARGET_SYSTEM: EBI2 (Homo sapiens)
- MEASUREMENT_PROTOCOL: Cell-based luminescent assay (EBI2 modulation)
- TEST_SETTINGS: cell-based luminescence; 7a,25-OHC final assay concentration 80 nM; 60 minutes incubation; read-out: IC50

Problem: Bench note: what IC50 did O=C(c1cc2cc(F)ccc2[nH]1)N1CCN(C(c2ccccc2)c2ccccc2)CC1 [Compound C126] show?
Solution: < 100 nM

Problem: Bench note: what IC50 did O=C(c1ccc2nc(C(F)(F)F)[nH]c2c1)N1CCN(C(c2ccccc2)c2ccccc2)CC1 [Compound C299] show?
Solution: 100 to 500 nM

Problem: Bench note: what IC50 did Cc1cccc(N2CCN(C(=O)c3cc4cc(Cl)ccc4[nH]3)CC2)c1C [Compound C400] show?
Solution: < 100 nM

Problem: Bench note: what IC50 did O=C(c1cc2ccccc2[nH]1)N1CCN(CCc2ccccc2)CC1 [Compound C347] show?
Solution: < 100 nM

Problem: Bench note: what IC50 did O=C(C#Cc1ccc(F)cc1F)N1CCN(C(=O)c2ccc(C(F)(F)F)cc2)CC1 [Compound C166] show?
Solution: 500 to 5000 nM

Problem: Bench note: what IC50 did O=C(c1ccc2nc(C(F)(F)F)[nH]c2c1)N1CCN(C(=O)c2cc3cc(Cl)ccc3[nH]2)CC1 [Compound C183] show?
Solution: 500 to 5000 nM

Problem: Bench note: what IC50 did O=C(/C=C/c1ccc(F)cc1)N1CCN(S(=O)(=O)c2ccc([N+](=O)[O-])cc2)CC1 [Compound C206] show?
Solution: < 100 nM

Problem: Bench note: what IC50 did O=C(/C=C/c1ccc(F)cc1)N1CCN(S(=O)(=O)c2cccc(Br)c2)CC1 [Compound C209] show?
Solution: < 100 nM

Problem: Bench note: what IC50 did O=C(c1ccc(C(F)(F)F)cc1)N1CCN(C(=O)c2cc3ccc(F)cc3[nH]2)CC1 [Compound C292] show?
Solution: 100 to 500 nM

Problem: Bench note: what IC50 did O=C(/C=C/c1ccc(F)cc1)N1CCN(S(=O)(=O)CCc2ccccc2)CC1 [Compound E3] show?
Solution: < 100 nM

Problem: Bench note: what IC50 did O=C(C#Cc1ccccc1C(F)(F)F)N1CCN(C(=O)c2ccc(C(F)(F)F)cc2)CC1 [Compound C169] show?
Solution: 500 to 5000 nM

Problem: Bench note: what IC50 did O=C(C=Cc1ccc2c(c1)OCO2)N1CCN(C(=O)c2ccc(F)cc2C(F)(F)F)CC1 [Compound C479] show?
Solution: 100 to 500 nM

Problem: Bench note: what IC50 did Nc1ccc(/C=C/C(=O)N2CCN(C(c3ccccc3)c3ccccc3)CC2)cc1 [Compound C305] show?
Solution: < 100 nM

Problem: Bench note: what IC50 did O=C(c1cc2cc(Cl)ccc2[nH]1)N1CCN(c2ccc(F)cc2)CC1 [Compound C470] show?
Solution: 100 to 500 nM

Problem: Bench note: what IC50 did O=C(/C=C/c1ccc(F)cc1)N1CCN(S(=O)(=O)c2ccc(Cl)cc2)CC1 [Compound C96] show?
Solution: < 100 nM

Problem: Bench note: what IC50 did O=C(C#Cc1ccc(F)cc1)N1CCN(Cc2ccc(Cl)cc2)CC1 [Compound C461] show?
Solution: 100 to 500 nM

Problem: Bench note: what IC50 did O=C(C#Cc1ccc(C(F)(F)F)cc1)N1CCN(Cc2ccc(Cl)cc2)CC1 [Compound C137] show?
Solution: < 100 nM

###

- TARGET_SYSTEM: EBI2 (Homo sapiens, UniProt P32249)
- MEASUREMENT_PROTOCOL: Cell-based luminescent assay (EBI2 modulation)
- TEST_SETTINGS: cell-based luminescence; 7a,25-OHC final assay concentration 80 nM; 60 minutes incubation; read-out: IC50
READOUT_NAME: IC50

Problem: Item Cc1ccc2[nH]c(C(=O)N3CCN(S(=O)(=O)/C=C/c4ccccc4)CC3)cc2c1 [Compound C48] with EBI2 (Homo sapiens, UniProt P32249) - IC50?
Solution: < 100 nM

Problem: Item O=C(/C=C/c1ccc(Cl)c(Cl)c1)N1CCN(Cc2ccc(F)cc2)CC1 [Compound C210] with EBI2 (Homo sapiens, UniProt P32249) - IC50?
Solution: < 100 nM

Problem: Item COc1ccc(/C=C/C(=O)N2CCN(S(=O)(=O)c3ccc(C(C)(C)C)cc3)CC2)cc1 [Compound C385] with EBI2 (Homo sapiens, UniProt P32249) - IC50?
Solution: < 100 nM

Problem: Item O=C(/C=C/c1ccc(Br)cc1)N1CCN(Cc2ccc(Cl)cc2F)CC1 [Compound C130] with EBI2 (Homo sapiens, UniProt P32249) - IC50?
Solution: < 100 nM

Problem: Item COc1ccc(C(=O)N2CCN(C(=O)C#Cc3cccc(Cl)c3)CC2)cc1 [Compound C59] with EBI2 (Homo sapiens, UniProt P32249) - IC50?
Solution: < 100 nM

Problem: Item O=C(c1ccccc1)N1CCN(C(=O)c2cc3cc(Cl)ccc3[nH]2)CC1 [Compound C243] with EBI2 (Homo sapiens, UniProt P32249) - IC50?
Solution: < 100 nM

Problem: Item O=C(C#Cc1ccc(C(F)(F)F)cc1)N1CCN(C(=O)c2ccc(F)cc2)CC1 [Compound C76] with EBI2 (Homo sapiens, UniProt P32249) - IC50?
Solution: < 100 nM

Problem: Item O=C(c1cc2c(F)cc(F)cc2[nH]1)N1CCN(C(c2ccccc2)c2ccccc2)CC1 [Compound C263] with EBI2 (Homo sapiens, UniProt P32249) - IC50?
Solution: < 100 nM

Problem: Item O=C(c1cc2cc(Cl)ccc2[nH]1)N1CCN(c2ccccc2F)CC1 [Compound C476] with EBI2 (Homo sapiens, UniProt P32249) - IC50?
Solution: 100 to 500 nM

Problem: Item O=C(c1ccc2cc3ccccc3cc2c1)N1CCN(C(c2ccccc2)c2ccccc2)CC1 [Compound C301] with EBI2 (Homo sapiens, UniProt P32249) - IC50?
Solution: < 100 nM

Problem: Item O=C(C#Cc1cc(F)cc(F)c1)N1CCN(Cc2ccc(Cl)cc2)CC1 [Compound C294] with EBI2 (Homo sapiens, UniProt P32249) - IC50?
Solution: 100 to 500 nM
